- Experimental system: UniProt:P47747
- Assay text: Intrinsic activity was evaluated against H2 receptor in guinea pig atrium
- Assay type: tissue-based
- Setup conditions: Cardiac atrium
Measured Intrinsic activity values are reported for all entries that follow.
Measured metric: Intrinsic activity

compound="c1ccc(C(CCC/N=C(/NCCCc2c[nH]cn2)NC2CCCCC2)c2ccccn2)cc1 (centres undefined)" reported_measurement=0.25
compound="CN/C(=N\\CCCC(c1ccc(Cl)c(Cl)c1)c1ccccn1)NCCCc1c[nH]cn1 (centres undefined)" reported_measurement=1
compound="CN/C(=N\\CCC(c1ccc(Br)cc1)c1ccccn1)NCCCc1c[nH]cn1 (centres undefined)" reported_measurement=0.9
compound="CN(CCC(c1ccc(F)cc1)c1ccccn1)C(=N)NCCCc1c[nH]cn1 (centres undefined)" reported_measurement=0.8

###

Entries annotated with measured Intrinsic activity
- Experimental system: Histamine H2 receptor (Cavia porcellus) (UniProt P47747)
- Sequence (P47747 whole entry): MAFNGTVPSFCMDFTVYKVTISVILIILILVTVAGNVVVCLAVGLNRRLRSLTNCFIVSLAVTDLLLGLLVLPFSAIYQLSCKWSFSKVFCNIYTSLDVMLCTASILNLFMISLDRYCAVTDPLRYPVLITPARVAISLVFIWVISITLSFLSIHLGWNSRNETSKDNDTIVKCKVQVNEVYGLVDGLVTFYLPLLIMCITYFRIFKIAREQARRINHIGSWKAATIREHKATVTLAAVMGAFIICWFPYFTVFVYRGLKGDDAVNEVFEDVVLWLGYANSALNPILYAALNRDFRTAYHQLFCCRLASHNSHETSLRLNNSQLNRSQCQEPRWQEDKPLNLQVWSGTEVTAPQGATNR
- Assay text: Intrinsic activity was evaluated against H2 receptor in guinea pig atrium
- Format: tissue-based
- Setup conditions: Cardiac atrium
Measured metric: Intrinsic activity

molecule="Fc1ccc(C(CCCNCCCc2c[nH]cn2)c2ccccn2)cc1 (stereo not given)" reported_measurement=0.5
molecule="N=C(NCCCc1c[nH]cn1)NCCCC(c1ccccc1)c1ccccn1 (stereo not given)" reported_measurement=1
molecule="Cc1ccc(CC(CC/N=C(/NCCCc2c[nH]cn2)NC2CCCCC2)c2ccccn2)cc1 (stereo not given)" reported_measurement=1
molecule="N=C(CCCCc1c[nH]cn1)NCCC(c1ccc(F)cc1)c1ccccn1 (stereo not given)" reported_measurement=0.6
molecule="Cc1ccc(CC(CC/N=C(\\N)NCCCc2c[nH]cn2)c2ccccn2)cc1 (stereo not given)" reported_measurement=1

###

Reported inhibition is given for each of the following compounds.
- Experimental system: Neuropeptide Y receptor type 1 (Homo sapiens) (UniProt P25929)
- Sequence (P25929 whole entry): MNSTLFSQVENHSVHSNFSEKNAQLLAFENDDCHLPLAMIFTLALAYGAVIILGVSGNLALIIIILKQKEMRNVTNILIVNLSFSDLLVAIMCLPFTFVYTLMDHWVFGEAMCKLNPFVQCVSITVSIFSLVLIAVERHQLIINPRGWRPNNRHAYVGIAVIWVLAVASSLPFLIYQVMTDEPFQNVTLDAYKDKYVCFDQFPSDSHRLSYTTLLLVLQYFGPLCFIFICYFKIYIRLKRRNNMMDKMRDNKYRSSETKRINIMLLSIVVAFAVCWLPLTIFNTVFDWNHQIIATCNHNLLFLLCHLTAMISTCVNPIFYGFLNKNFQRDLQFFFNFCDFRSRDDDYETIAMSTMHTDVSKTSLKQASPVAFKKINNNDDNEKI
- Assay text: Tested for inhibition of NPY-induced increase in [Ca2+] at 100 uM concentration in human erythroleukemia cells
- Format: functional
Measured metric: inhibition

compound="CN/C(=N\\CCCC(c1ccc(Cl)c(Cl)c1)c1ccccn1)NCCCc1c[nH]cn1 (stereo not given)" experimental_system="Neuropeptide Y receptor type 1 (Homo sapiens) (UniProt P25929)" reported_measurement=41%
compound="Clc1ccc(C(CCC/N=C(/NCCCc2c[nH]cn2)NC2CCCCC2)c2ccccn2)cc1Cl (stereo not given)" experimental_system="Neuropeptide Y receptor type 1 (Homo sapiens) (UniProt P25929)" reported_measurement=87%
compound="c1ccc(C(CCC/N=C(/NCCCc2c[nH]cn2)NC2CCCCC2)c2ccccn2)cc1 (stereo not given)" experimental_system="Neuropeptide Y receptor type 1 (Homo sapiens) (UniProt P25929)" reported_measurement=53%
compound="CN/C(=N\\CCC(c1ccc(F)cc1)c1ccccn1)NCCCc1c[nH]cn1 (stereo not given)" experimental_system="Neuropeptide Y receptor type 1 (Homo sapiens) (UniProt P25929)" reported_measurement=13%
compound="CCOC(=O)N/C(=N\\CCC(c1ccc(F)cc1)c1ccccn1)NCCCc1c[nH]cn1 (stereo not given)" experimental_system="Neuropeptide Y receptor type 1 (Homo sapiens) (UniProt P25929)" reported_measurement=4%
compound="Brc1ccc(C(CC/N=C(/NCCCc2c[nH]cn2)NC2CCCCC2)c2ccccn2)cc1 (stereo not given)" experimental_system="Neuropeptide Y receptor type 1 (Homo sapiens) (UniProt P25929)" reported_measurement=82%
compound="N=C(CCCCc1c[nH]cn1)NCCC(c1ccc(F)cc1)c1ccccn1 (stereo not given)" experimental_system="Neuropeptide Y receptor type 1 (Homo sapiens) (UniProt P25929)" reported_measurement=27%
compound="N#CN/C(=N\\CCC(c1ccc(F)cc1)c1ccccn1)NCCCc1c[nH]cn1 (stereo not given)" experimental_system="Neuropeptide Y receptor type 1 (Homo sapiens) (UniProt P25929)" reported_measurement=13%
compound="N=C(NCCCc1c[nH]cn1)NCCCC(c1ccc(Cl)c(Cl)c1)c1ccccn1 (stereo not given)" experimental_system="Neuropeptide Y receptor type 1 (Homo sapiens) (UniProt P25929)" reported_measurement=78%
compound="CN(CCC(c1ccc(F)cc1)c1ccccn1)C(=N)NCCCc1c[nH]cn1 (stereo not given)" experimental_system="Neuropeptide Y receptor type 1 (Homo sapiens) (UniProt P25929)" reported_measurement=42%
